System: Aspergillus terreus
TEST METHOD NOTES: Antimicrobial activity against Aspergillus terreus clinical isolate after 48 hrs by EUCAST test
Assay type: functional
Numbered stars: 1 amine (or outer) side, 2 acyl side, 3 side chain; on linkers, the order of the positions; unused ones are H or OH. Bridge positions count the residues as written; N and C are the ends. Square brackets hold non-standard residues; d marks the D form. Peptide text beside a SMILES is read from it. * marks the point of attachment. hTyr(3S-OH,4S-OH,3'-OSO3H) = N[C@H](C(=O)O)[C@H](O)[C@@H](O)c1ccc(O)c(OS(=O)(=O)O)c1; pTerphenylCO(4''-OnC5H11) = CCCCCOc1ccc(-c2ccc(-c3ccc(C(=O)*)cc3)cc2)cc1; Orn(4R-OH,5R-OH) = O=C([C@H](C[C@@H](O)[C@@H](O)N[*:3])N[*:1])[*:2]; hTyr(3S-OH,4S-OH) = N[C@H](C(=O)O)[C@H](O)[C@@H](O)c1ccc(O)cc1; Pro(3S-OH,4S-Me) = C[C@H]1CN[C@H](C(=O)O)[C@H]1O; X1 = CCCCCOc1ccc(-c2cc(-c3ccc(C(=O)*)cc3)no2)cc1; Gln(3R-OH) = NC(=O)C[C@@H](O)[C@H](N)C(=O)O; Hyp = O=C(O)[C@@H]1C[C@@H](O)CN1
A collection of molecules and their measured MIC90
Answer in µg/mL, number only, no unit symbol.

Ask: Name the recorded MIC90 of the molecule listed here: CCCCCOc1ccc(-c2cc(-c3ccc(C(=O)N[C@H]4C[C@@H](O)[C@@H](O)NC(=O)[C@@H]5[C@@H](O)[C@@H](C)CN5C(=O)[C@H]([C@H](O)CC(N)=O)NC(=O)[C@H]([C@H](O)[C@@H](O)c5ccc(O)c(OS(=O)(=O)O)c5)NC(=O)[C@@H]5C[C@@H](O)CN5C(=O)[C@H]([C@@H](C)O)NC4=O)cc3)no2)cc1 [MICAFUNGIN] (X1-[Orn(4R-OH,5R-OH)]T[Hyp][hTyr(3S-OH,4S-OH,3'-OSO3H)][Gln(3R-OH)][Pro(3S-OH,4S-Me)]; lactam 1-C)
Reply: 0.03

Ask: Name the recorded MIC90 of the molecule listed here: C[C@@H](c1nc(-c2ccc(C#N)cc2)cs1)[C@](O)(Cn1cncn1)c1ccc(F)cc1F [RAVUCONAZOLE]
Reply: 2

Ask: Name the recorded MIC90 of the molecule listed here: C[C@@H]1[C@H](O)[C@@H](C)/C=C/C=C/C=C/C=C/C=C/C=C/C=C/[C@H](O[C@@H]2O[C@H](C)[C@@H](O)[C@H](N)[C@@H]2O)C[C@@H]2O[C@](O)(C[C@@H](O)C[C@@H](O)[C@H](O)CC[C@@H](O)C[C@@H](O)CC(=O)O[C@H]1C)C[C@H](O)[C@H]2C(=O)O [AMPHOTERICIN B]
Reply: 2

Further cases:
Ask: Name the recorded MIC90 of the molecule listed here: CC[C@H](C)C[C@H](C)CCCCCCCCC(=O)N[C@H]1C[C@@H](O)[C@@H](NCCN)NC(=O)[C@@H]2[C@@H](O)CCN2C(=O)[C@H]([C@H](O)CCN)NC(=O)[C@H]([C@H](O)[C@@H](O)c2ccc(O)cc2)NC(=O)[C@@H]2C[C@@H](O)CN2C(=O)[C@H]([C@@H](C)O)NC1=O [CASPOFUNGIN]
Reply: 2

Ask: Name the recorded MIC90 of the molecule listed here: CCC(C)n1ncn(-c2ccc(N3CCN(c4ccc(OCC5COC(Cn6cncn6)(c6ccc(Cl)cc6Cl)O5)cc4)CC3)cc2)c1=O (centres undefined) [ITRACONAZOLE]
Reply: 0.5

Ask: Name the recorded MIC90 of the molecule listed here: CCCCCOc1ccc(-c2ccc(-c3ccc(C(=O)N[C@H]4C[C@@H](O)[C@@H](O)NC(=O)[C@@H]5[C@@H](O)[C@@H](C)CN5C(=O)[C@H]([C@@H](C)O)NC(=O)[C@H]([C@H](O)[C@@H](O)c5ccc(O)cc5)NC(=O)[C@@H]5C[C@@H](O)CN5C(=O)[C@H]([C@@H](C)O)NC4=O)cc3)cc2)cc1 [ANIDULAFUNGIN] ({pTerphenylCO(4''-OnC5H11)}-[Orn(4R-OH,5R-OH)]T[Hyp][hTyr(3S-OH,4S-OH)]T[Pro(3S-OH,4S-Me)]; lactam 1-C)
Reply: 0.03

Ask: Name the recorded MIC90 of the molecule listed here: CN(C/C=C/C#CC(C)(C)C)Cc1cccc2ccccc12 [TERBINAFINE]
Reply: 0.5

Ask: Name the recorded MIC90 of the molecule listed here: CC[C@@H]([C@H](C)O)n1ncn(-c2ccc(N3CCN(c4ccc(OC[C@@H]5CO[C@@](Cn6cncn6)(c6ccc(F)cc6F)C5)cc4)CC3)cc2)c1=O [POSACONAZOLE]
Reply: 0.12

Ask: Name the recorded MIC90 of the molecule listed here: C[C@@H](c1ncncc1F)[C@](O)(Cn1cncn1)c1ccc(F)cc1F [VORICONAZOLE]
Reply: 2
